For each of the molecules below, state its IC80.
- Test system: E. coli TOP10F'
- procedure_details: Growth inhibition after 7 hours (EC80/EC50)
- test_parameters: Escherichia coli, 7 h, read-out: EC80 TOP10F'
Respond with the bare value in µg/mL.

Incoming: E. coli TOP10F' / IC80 / O=c1ccc2ncc(=O)n3c2n1C[C@H]3CN1CCC(NCc2cc3c(cn2)OCCC3)CC1 [gepotidacin, Gepotidacin, reference compound] : value?
Outgoing: 8

Incoming: Now the molecule `CCc1cc(-c2c(F)cc3c(=O)c(C(=O)O)cn4c3c2OC[C@@H]4C)cc(C)n1`
Outgoing: 0.031

Incoming: Now the molecule `Cc1ncc(CNC2CCN(CCn3c(=O)ccc4ncc(OCc5ccnn5C)cc43)CC2)cc1Cl`
Outgoing: 1

Incoming: Now the molecule O=S(=O)(NC[C@@H]1CC[C@H](c2ccc(-c3cccnc3)cc2)N1)c1cccc2cnccc12 [LEI-800, reference compound]
Outgoing: 8

Incoming: Now the molecule O=C1COc2ccc(CNC3CCN(CC4Cc5c(F)cc(F)c6ccc(=O)n4c56)CC3)nc2N1 (stereo not shown)
Outgoing: 0.5

Incoming: Now the molecule `CNn1cc(C(=O)O)c(=O)c2cc(F)c(N3CCN(C(C)C)CC3)cc21`
Outgoing: 4

Incoming: Now the molecule CC(C)(C)n1cc(C(=O)O)c(=O)c2cc(F)c(N3CC4CC3CN4)nc21 (stereo not shown)
Outgoing: 0.063

Incoming: Now the molecule `Cc1cc(-c2c(F)cc3c(=O)c(C(=O)O)cn(CCF)c3c2F)cc(C)n1`
Outgoing: 0.063

Incoming: Now the molecule CCn1cc(C(=O)O)c(=O)c2cc(F)c(N3CCNC(C)C3)c(F)c21 (stereo not shown) [lomefloxacin, Lomefloxacin, reference compound]
Outgoing: 2

Incoming: Now the molecule COC1CN(CCn2c(=O)ccc3ncc(F)cc32)CCC1NCc1cc(F)c2c(c1)NC(=O)CO2 (stereo not shown)
Outgoing: 2

====

- Test system: Rcs cell envelope stress response in Escherichia coli
- procedure_details: Rcs stress reporter assay, HTS format, dose-response curves
- Format: cell-based
- test_parameters: read-out: pEC50 (converted)
For each of the compounds below, state its EC50.
Respond with the bare value in nM.

Incoming: Rcs cell envelope stress response in Escherichia coli / EC50 / `Cc1cc(-c2c(F)cc3c(=O)c(C(=O)O)cn(CCF)c3c2F)cc(C)n1` : value?
Outgoing: 955

Incoming: Now the compound `CN(C)c1ccc(-c2nc(Cl)nc3cccnc23)cc1`
Outgoing: 7760

Incoming: Now the compound `CCc1cc(-c2c(F)cc3c(=O)c(C(=O)O)cn4c3c2OC[C@@H]4C)cc(C)n1`
Outgoing: 191

Incoming: Now the compound O=C1COc2ccc(CNC3CCN(CC4Cc5c(F)cc(F)c6ccc(=O)n4c56)CC3)nc2N1 (centres unmarked)
Outgoing: 282

Incoming: Now the compound `CNn1cc(C(=O)O)c(=O)c2cc(F)c(N3CCN(C(C)C)CC3)cc21`
Outgoing: 214

Incoming: Now the compound `Cc1ncc(CNC2CCN(CCn3c(=O)ccc4ncc(OCc5ccnn5C)cc43)CC2)cc1Cl`
Outgoing: 5620

Incoming: Now the compound CC(C)(C)n1cc(C(=O)O)c(=O)c2cc(F)c(N3CC4CC3CN4)nc21 (centres unmarked)
Outgoing: 107

Incoming: Now the compound COC1CN(CCn2c(=O)ccc3ncc(F)cc32)CCC1NCc1cc(F)c2c(c1)NC(=O)CO2 (centres unmarked)
Outgoing: 631

Sourced from paper PMC12442099
